Listing: protein stability index of selected variants
B1: FAM107A (parent)
chain: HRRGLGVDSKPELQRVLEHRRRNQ

# Variants of: B1
# METHOD_SUMMARY: protein stability index of a GFP-peptide fusion (GPS, HEK-293T) (PSI 1-6); higher = more stable;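 also: lentivirally expressed fusions sorted by FACS into six bins by GFP to DsRed ratio, PSI derived from sequencing read proportions per bin multiplied by bin number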
# CONDITION_NOTES: c terminus: a fixed tail appended

Reference set (6 entries):
| MUTATION_DESCRIPTOR | MEASURED |
| --- | --- |
| V7A | 3.74 |
| V7C | 3.07 |
| E18Q | 2.67 |
| P11A | 4.05 |
| K10S | 5.01 |
| R22L | 3.4 |

[ask] Query (variant): L5Q ; field requested: protein stability index
[reply] 5.16

[ask] And then G4N , what is it?
[reply] 4.42

[ask] And then Q24H , what is it?
[reply] 3.64

[ask] And then E18F , what is it?
[reply] 3.93

[ask] And then G6I , what is it?
[reply] 3.68

[ask] And then V16D , what is it?
[reply] 4.25

[ask] And then G6A , what is it?
[reply] 1.82

[ask] And then L13S , what is it?
[reply] 4.93

[ask] And then L13I , what is it?
[reply] 4.71

[ask] And then L5T , what is it?
[reply] 4.82

[ask] And then L13Q , what is it?
[reply] 5.33

[ask] And then L5P , what is it?
[reply] 4.16
